Source of measurements: paper PMC9464890

# Assayed Target: T1, ScpA_(S512A,E864A) (Streptococcus pyogenes, UniProt P15926 31-1032, S512A | E864A)
# T1 construct: Made by QuikChange II from pGEX ScpA(31-1032); also called E864A_(S512A); source: details in Supplemental Information SI1 and SI2
# T1 sequence (looked up): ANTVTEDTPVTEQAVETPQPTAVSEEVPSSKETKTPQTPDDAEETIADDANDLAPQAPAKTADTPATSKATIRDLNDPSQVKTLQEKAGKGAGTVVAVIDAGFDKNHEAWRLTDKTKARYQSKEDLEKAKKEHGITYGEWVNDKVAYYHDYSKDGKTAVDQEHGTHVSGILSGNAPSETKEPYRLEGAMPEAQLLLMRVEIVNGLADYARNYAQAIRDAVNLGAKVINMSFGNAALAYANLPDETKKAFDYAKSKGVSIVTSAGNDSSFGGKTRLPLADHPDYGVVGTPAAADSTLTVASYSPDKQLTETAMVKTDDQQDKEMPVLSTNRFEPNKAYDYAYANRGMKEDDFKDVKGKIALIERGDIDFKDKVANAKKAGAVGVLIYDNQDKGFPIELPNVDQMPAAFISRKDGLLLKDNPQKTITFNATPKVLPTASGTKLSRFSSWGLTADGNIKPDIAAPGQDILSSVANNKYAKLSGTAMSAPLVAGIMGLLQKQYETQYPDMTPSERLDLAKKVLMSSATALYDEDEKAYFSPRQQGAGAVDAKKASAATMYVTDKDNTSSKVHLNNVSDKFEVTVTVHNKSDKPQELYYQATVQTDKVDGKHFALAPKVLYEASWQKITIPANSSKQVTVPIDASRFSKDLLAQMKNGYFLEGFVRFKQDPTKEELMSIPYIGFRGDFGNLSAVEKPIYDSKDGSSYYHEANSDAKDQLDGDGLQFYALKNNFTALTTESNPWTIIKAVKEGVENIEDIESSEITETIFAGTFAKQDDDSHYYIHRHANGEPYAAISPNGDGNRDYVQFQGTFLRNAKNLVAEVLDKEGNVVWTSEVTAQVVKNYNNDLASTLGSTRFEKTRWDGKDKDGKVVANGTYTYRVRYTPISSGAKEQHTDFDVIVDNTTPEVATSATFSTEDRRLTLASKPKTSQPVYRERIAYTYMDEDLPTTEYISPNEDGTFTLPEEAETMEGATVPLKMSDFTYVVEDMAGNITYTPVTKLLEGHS
# Assay: SPR; BIAcore X100, NTA sensor chip with about 20-25 RU of immobilised His-tagged C5a form (ligand), ScpA form flowed as ligate at 30 uL/min, 25 °C, 10 mM Hepes-KOH pH 7.4, 150 mM NaCl, 0.005% Tween 20, 50 uM EDTA; global fit, 1:1 Langmuir model with drifting baseline; triplicate
# Condition Info: both partners purified
Attribute Measured: pKd
By convention, pKd is the negative base-10 log of a molar concentration.

For record Recombinant human C5a (rhC5a) (natural protein, UniProt P01031 678-751, looked up, human complement C5a anaphylatoxin, residues 1-74 (core 1-67 and tail 68-74); also called full length rhC5a; substrate; not shown: His6, N-terminal, kept) TLQKKIEEIAAKYKHSVVKKCCYDGACVNNDETCEQRAARISLGPRCIKAFTECCVVASQLRANISHKDMQLGR the listed pKd is 7.60
